Biological target: FcγRIIIa V176
Assay: Surface plasmon resonance (Biacore) binding of mAb3 from treated cultures to FcγRIIIa
Conditions: mAb3 from culture fed with 400 μM additive, day 12
Description: Binding of samples after 5-ThioFuc treatment was investigated by surface plasmon resonance technology using a Biacore T200 system (GE Healthcare, Uppsala, Sweden). The analysis temperature was set to 25° C. and sample compartment temperature to 15° C. […] The anti-His antibody was further used to capture His-tagged FcγRIIIa V176 ([…]) from AcroBiosystems (Newark, Del., USA). Binding was recorded continuously, while unspecific binding and injection artefacts were subtracted automatically. […]
MEASURED PARAMETER: Kd (nM)

compound="CC(=O)OC1O[C@@H](C)[C@@H](OC(C)=O)[C@@H](OC(C)=O)[C@@H]1F (some centres unmarked) [2F-Peracetylfucose, reference compound]" reported=34
compound="C[C@@H]1SC(O)[C@@H](O)[C@H](O)[C@@H]1O (some centres unmarked)" reported=32
